- Species on record: Homo sapiens
- Conditions used: 10 uM
- Description: Inhibition of RPA (unknown origin) at 10 uM by EMSA assay
Active and inactive are the calls of the source. No cut-off for these calls is given here.

Molecule: CC1=NN(c2ccc(Cl)c(C(=O)O)c2)C(=O)/C1=C\c1ccc(-c2ccc(Cl)c(C(=O)OCc3ccccc3)c2)o1
inhibition: inactive
//
Molecule: CC1=NN(c2ccc(C(=O)O)cc2)C(=O)/C1=C\c1ccc(-c2ccc(Cl)c(C(=O)NCC3CC3)c2)o1
inhibition: inactive
//
Molecule: CC1=NN(c2ccc(C(=O)O)cc2)C(=O)/C1=C\c1ccc(-c2ccc(Cl)c(C(=O)NCc3ccc(F)cc3)c2)o1
inhibition: inactive
//
Molecule: CC1=NN(c2ccc(Cl)c(C(=O)O)c2)C(=O)/C1=C\c1ccc(-c2ccc(Cl)c(C(=O)OCc3ccccc3Cl)c2)o1
inhibition: inactive
